We begin with a simple list: items and their reported GLP1R EC50 nM (B).
- MEASUREMENT_TARGET: human GLP-1R (human, UniProt P43220 24-463)
- ASSAY_NAME: cell-based or functional assay
Non-standard residues stand in square brackets, D forms with d. No end group written: not given here. *: point of attachment. Palmitoyl = CCCCCCCCCCCCCCCC(=O)*
PROPERTY_NAME: GLP1R EC50 nM (B) (nM)

* Y[dA]EGTFISDYSIAMDKIHQQDFVNWLLAQKGKKNDWK(Palmitoyl)HNIIQ-NH2 [Compound No. 2] | 5
* Ac-YAEGTFISDYSIAMDKIHQQDFVNWLLAQKGKKNDWKHNIIQ-OH [Compound No. 1] | 302

Where these numbers come from: patent US20220016215A1
